Tested on: Escherichia coli
Experiment: in vitro antibacterial evaluation, MIC by broth dilution
Assay type: cell-based
Conditions: 18 hours at 35° C.
# key: entry, value: MIC Escherichia coli (GC 4559)

[
  {
    "Molecule": "CC(c1ccccc1)C1NC(=O)CNC(=O)C(CO)NC(=O)C(CC2CN(Cc3ccccc3)C(=NCc3ccccc3)N2C2OC(CO)C(O)C(O)C2O)NC(=O)C(CC2CN(Cc3ccccc3)C(=NCc3ccccc3)N2Cc2ccccc2)NC(=O)C(Cc2ccc(OC3OC(CO)C(OC4OC(CO)C(O)C(O)C4O)C(O)C3O)cc2)NC1=O (stereo not drawn)",
    "MIC Escherichia coli (GC 4559)": ">128 µg/mL"
  },
  {
    "Molecule": "CN=C1N(C)CC(C(O)C2NC(=O)C(Cc3ccc(OC4OC(CO)C(OC5OC6COC7(OC6C(O)C5O)C5CC6CC(C5)CC7C6)C(O)C4O)cc3)NC(=O)C(C(C)c3ccccc3)NC(=O)CNC(=O)C(CO)NC(=O)C(C(O)C3CN(C)C(=NC)N3C3OC(CO)C(O)C(O)C3O)NC2=O)N1C (stereo not drawn)",
    "MIC Escherichia coli (GC 4559)": ">128 µg/mL"
  }
]

stdin: # MIC Escherichia coli (GC 4559) lookup, item CC(c1ccccc1)C1NC(=O)CNC(=O)C(CO)NC(=O)C(C(O)C2CN(Cc3ccccc3)C(=N)N2C2OC(CO)C(O)C(O)C2O)NC(=O)C(C(O)C2CNC(=N)N2)NC(=O)C(Cc2ccc(OC3OC(CO)C(OC4OC(CO)C(O)C(O)C4O)C(O)C3O)cc2)NC1=O (stereo not drawn)
stdout: >128 µg/mL

###

Items are presented alongside their recorded MIC Enterococcus faecalis (ATCC 29212).
System: Enterococcus sp.
Test: in vitro antibacterial evaluation, MIC by broth dilution
Format: cell-based
Details: Enterococcus faecalis (ATCC 29212); broth dilution, 18 hours at 35° C.

[
  {
    "Molecule": "CC(c1ccccc1)C1NC(=O)CNC(=O)C(CO)NC(=O)C(C(O)C2CN(Cc3ccc(C(C)(C)C)cc3)C(=N)N2C2OC(CO)C(O)C(O)C2O)NC(=O)C(C(O)C2CNC(=N)N2)NC(=O)C(Cc2ccc(OC3OC(CO)C(OC4OC(CO)C(O)C(O)C4O)C(O)C3O)cc2)NC1=O (stereo not shown)",
    "MIC Enterococcus faecalis (ATCC 29212)": ">128 µg/mL"
  }
]

stdin: So what does the record say about MIC Enterococcus faecalis (ATCC 29212) for CC(c1ccccc1)C1NC(=O)CNC(=O)C(CO)NC(=O)C(C(O)C2CNC(=N)N2C2OC(CO)C(O)C(O)C2O)NC(=O)C(C(O)C2CNC(=N)N2)NC(=O)C(Cc2ccc(OC3OC(CO)C(OC4OC5COC(c6ccc(C(C)(C)C)cc6)OC5C(O)C4O)C(O)C3O)cc2)NC1=O (stereo not shown) ?
stdout: 0.5 to 2 µg/mL

stdin: One more molecule: CC(c1ccccc1)C1NC(=O)CNC(=O)C(CO)NC(=O)C(C(O)C2CN(Cc3ccc(C(=O)O)cc3)C(=N)N2C2OC(CO)C(O)C(O)C2O)NC(=O)C(C(O)C2CNC(=N)N2)NC(=O)C(Cc2ccc(OC3OC(CO)C(OC4OC(CO)C(O)C(O)C4O)C(O)C3O)cc2)NC1=O (stereo not shown)
stdout: >128 µg/mL

stdin: Consider next the molecule CC(C)C(=O)OCC1OC(OC2C(CO)OC(Oc3ccc(CC4NC(=O)C(Cc5ccccc5)NC(=O)CNC(=O)C(CO)NC(=O)C(C(O)C5CNC(=N)N5C5OC(CO)C(O)C(O)C5O)NC(=O)C(C(O)C5CNC(=N)N5)NC4=O)cc3)C(O)C2O)C(O)C(O)C1O (stereo not shown) [Example 283a] in the same way.
stdout: >128 µg/mL

###

Listed compounds paired with reported MIC Enterococcus faecalis (GC 4552)
Test system: Enterococcus sp.
Assay: in vitro antibacterial evaluation, MIC by broth dilution
Format: cell-based
Details: broth dilution, inoculum 5×10^5 CFU/mL, 18 hours at 35° C.; strain GC 4552

stdin: Consider the compound COc1cc(C2OCC3OC(OC4C(CO)OC(Oc5ccc(CC6NC(=O)C(C(C)c7ccccc7)NC(=O)CNC(=O)C(CO)NC(=O)C(C(O)C7CNC(=N)N7C7OC(CO)C(O)C(O)C7O)NC(=O)C(C(O)C7CNC(=N)N7)NC6=O)cc5)C(O)C4O)C(O)C(O)C3O2)cc([N+](=O)[O-])c1O (stereo not shown) [Example 169] and give its measured MIC Enterococcus faecalis (GC 4552).
stdout: >64 µg/mL

stdin: Same read-out for CC(c1ccccc1)C1NC(=O)CNC(=O)C(CO)NC(=O)C(C(O)C2CNC(=N)N2C2OC(CO)C(O)C3OC(C)(C)OC32)NC(=O)C(C(O)C2CNC(=N)N2)NC(=O)C(Cc2ccc(OC3OC(CO)C(OC4OC5COC(C)(C)OC5C5OC(C)(C)OC45)C4OC(C)(C)OC34)cc2)NC1=O (stereo not shown) [Example 229b] ?
stdout: >128 µg/mL

stdin: Okay, and CC(c1ccccc1)C1NC(=O)CNC(=O)C(CO)NC(=O)C(C(O)C2CNC(=N)N2C2OC(CO)C(O)C3OC(C)(C)OC32)NC(=O)C(C(O)C2CNC(=N)N2)NC(=O)C(Cc2ccc(OC3OC(CO)C(OC4OC(CO)C(O)C(O)C4O)C4OC(C)(C)OC34)cc2)NC1=O (stereo not shown) [Example 229] ?
stdout: >128 µg/mL

stdin: How about CC(c1ccccc1)C1NC(=O)CNC(=O)C(CO)NC(=O)C(C(O)C2CNC(=N)N2C2OC(CO)C(O)C(O)C2O)NC(=O)C(C(O)C2CNC(=N)N2)NC(=O)C(Cc2ccc(OC3OC(CO)C(OC4OC5COC(c6ccc(S(C)(=O)=O)cc6)OC5C(O)C4O)C(O)C3O)cc2)NC1=O (stereo not shown) [Example 157] ?
stdout: >64 µg/mL

###

Measured MIC Enterococcus faecium (GC 2243) by item
Tested on: Enterococcus sp.
Experiment: in vitro antibacterial evaluation, MIC by broth dilution
Assay type: cell-based
Conditions: Enterococcus faecium (GC 2243); broth dilution, 18 hours at 35° C.

[
  {
    "Compound": "CC(c1ccccc1)C1NC(=O)CNC(=O)C(CO)NC(=O)C(C(O)C2CNC(=N)N2C2OC(CO)C(O)C(O)C2O)NC(=O)C(C(O)C2CNC(=N)N2)NC(=O)C(Cc2ccc(OC3OC(CO)C(OC4OC(CO)C(O)C(O)C4O)C(O)C3O)c(N)c2)NC1=O (stereo not shown)",
    "Quantity Kind": "MIC Enterococcus faecium (GC 2243)",
    "Endpoint Value": ">64 µg/mL"
  },
  {
    "Compound": "COc1cccc(C2OC3C(OC4C(CO)OC(Oc5ccc(CC6NC(=O)C(C(C)c7ccccc7)NC(=O)CNC(=O)C(CO)NC(=O)C(C(O)C7CNC(=N)N7C7OC(CO)C(O)C(O)C7O)NC(=O)C(C(O)C7CNC(=N)N7)NC6=O)cc5)C(O)C4O)OC(CO)C(O)C3O2)c1 (single isomer, unassigned) [Example 137a]",
    "Quantity Kind": "MIC Enterococcus faecium (GC 2243)",
    "Endpoint Value": ">64 µg/mL"
  },
  {
    "Compound": "CN=C1N(C)CC(C(O)C2NC(=O)C(Cc3ccc(OC4OC(CO)C(OC5OC(CO)C(O)C(O)C5O)C(O)C4O)cc3)NC(=O)C(C(C)c3ccccc3)NC(=O)CNC(=O)C(CO)NC(=O)C(C(O)C3CN(C)C(=NC)N3C3OC(CO)C(O)C(O)C3O)NC2=O)N1C (stereo not shown)",
    "Quantity Kind": "MIC Enterococcus faecium (GC 2243)",
    "Endpoint Value": ">128 µg/mL"
  }
]

stdin: Which value of MIC Enterococcus faecium (GC 2243) has been reported for CC(c1ccccc1)C1NC(=O)CNC(=O)C(CO)NC(=O)C(C(O)C2CN(Cc3ccc(-c4ccccc4)cc3)C(=N)N2C2OC(CO)C(O)C(O)C2O)NC(=O)C(C(O)C2CNC(=N)N2)NC(=O)C(Cc2ccc(OC3OC(CO)C(OC4OC(CO)C(O)C(O)C4O)C(O)C3O)cc2)NC1=O (stereo not shown) [Example 66a] in the records?
stdout: >128 µg/mL

###

Tested on: Enterococcus sp.
Assay: in vitro antibacterial evaluation, MIC by broth dilution
Format: cell-based
Settings: broth dilution, 18 hours at 35° C.
Below, each entry is listed with its recorded MIC Enterococcus faecium (GC 2243).

[
  {
    "Compound": "CCCCCNC(=O)OC1C(CO)OC(OC2C(CO)OC(Oc3ccc(CC4NC(=O)C(C(C)c5ccccc5)NC(=O)CNC(=O)C(CO)NC(=O)C(C(O)C5CNC(=N)N5C5OC(CO)C(O)C(O)C5O)NC(=O)C(C(O)C5CNC(=N)N5)NC4=O)cc3)C(O)C2O)C(O)C1O (centres unmarked)",
    "Target Or Test System": "Enterococcus sp.",
    "MIC Enterococcus faecium (GC 2243)": ">64 µg/mL"
  },
  {
    "Compound": "CC(c1ccccc1)C1NC(=O)CNC(=O)C(CO)NC(=O)C(C(O)C2CN(c3ncccn3)C(=N)N2C2OC(CO)C(O)C(O)C2O)NC(=O)C(C(O)C2CNC(=Nc3ncccn3)N2)NC(=O)C(Cc2ccc(OC3OC(CO)C(OC4OC(CO)C(O)C(O)C4O)C(O)C3O)cc2)NC1=O (centres unmarked)",
    "Target Or Test System": "Enterococcus sp.",
    "MIC Enterococcus faecium (GC 2243)": ">128 µg/mL"
  },
  {
    "Compound": "CC(c1ccccc1)C1NC(=O)CNC(=O)C(CO)NC(=O)C(C(O)C2CN(CCCCCCCCCCC(=O)O)C(=N)N2C2OC(CO)C(O)C(O)C2O)NC(=O)C(C(O)C2CNC(=N)N2)NC(=O)C(Cc2ccc(OC3OC(CO)C(OC4OC(CO)C(O)C(O)C4O)C(O)C3O)cc2)NC1=O (centres unmarked)",
    "Target Or Test System": "Enterococcus sp.",
    "MIC Enterococcus faecium (GC 2243)": ">128 µg/mL"
  },
  {
    "Compound": "CC(c1ccccc1)C1NC(=O)CNC(=O)C(CO)NC(=O)C(C(O)C2CNC(=N)N2C2OC(CO)C(O)C3OC(C)(C)OC32)NC(=O)C(C(O)C2CNC(=N)N2)NC(=O)C(Cc2ccc(OC3OC(CO)C(OC4OC(CO)C(O)C(O)C4O)C4OC(C)(C)OC34)cc2)NC1=O (centres unmarked)",
    "Target Or Test System": "Enterococcus sp.",
    "MIC Enterococcus faecium (GC 2243)": ">128 µg/mL"
  }
]

stdin: What value of MIC Enterococcus faecium (GC 2243) has been recorded for this entry: COc1ccc2cc(COC3C(CO)OC(OC4C(CO)OC(Oc5ccc(CC6NC(=O)C(C(C)c7ccccc7)NC(=O)CNC(=O)C(CO)NC(=O)C(C(O)C7CNC(=N)N7C7OC(CO)C(O)C(O)C7O)NC(=O)C(C(O)C7CNC(=N)N7)NC6=O)cc5)C(O)C4O)C(O)C3O)ccc2c1 (centres unmarked) [Example 230a]
stdout: 2 to 4 µg/mL
